# literature pull: Cyclin-dependent kinase 7 (Homo sapiens, UniProt P50613) IC50
# Sequence (P50613 whole entry): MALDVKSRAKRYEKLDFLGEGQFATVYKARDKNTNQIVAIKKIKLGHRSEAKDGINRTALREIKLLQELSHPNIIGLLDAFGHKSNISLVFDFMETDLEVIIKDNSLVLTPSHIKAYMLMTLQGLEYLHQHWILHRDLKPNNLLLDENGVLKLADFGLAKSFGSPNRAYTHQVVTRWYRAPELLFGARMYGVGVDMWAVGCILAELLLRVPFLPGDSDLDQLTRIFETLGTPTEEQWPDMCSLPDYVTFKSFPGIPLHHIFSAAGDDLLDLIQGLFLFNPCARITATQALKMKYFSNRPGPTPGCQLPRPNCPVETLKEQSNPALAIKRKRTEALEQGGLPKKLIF

# lookup: Cyclin-dependent kinase 7 (Homo sapiens, UniProt P50613) IC50, key = Cc1n[nH]c2cc(Nc3nc(NC4CC4)c4occc4n3)ccc12
> 10 µM

# lookup: Cyclin-dependent kinase 7 (Homo sapiens, UniProt P50613) IC50, key = c1cncc(-c2cncc(-c3cnc(Nc4cc(N5CCNCC5)ccn4)s3)c2)c1
> 10 µM

# lookup: Cyclin-dependent kinase 7 (Homo sapiens, UniProt P50613) IC50, key = Cc1n[nH]c2ccc(-c3cncc(N[C@@H](CO)c4ccc(F)cc4)n3)cc12
> 1 µM

# lookup: Cyclin-dependent kinase 7 (Homo sapiens, UniProt P50613) IC50, key = NC(=O)c1cncc(-c2cnc(Nc3cc(N4CCOCC4)ccn3)s2)c1
> 3.7 µM

# lookup: Cyclin-dependent kinase 7 (Homo sapiens, UniProt P50613) IC50, key = CC(C)c1cnn2c(NCc3ccccc3N(C)C)nc(OC3CCN(C)CC3)nc12
< 0.005 µM

# lookup: Cyclin-dependent kinase 7 (Homo sapiens, UniProt P50613) IC50, key = C=CC(=O)NCc1ccc(-c2ccc(C(C)C(=O)Nc3cc(C4CC4)[nH]n3)cn2)cn1 (stereo not given)
> 10 µM

# lookup: Cyclin-dependent kinase 7 (Homo sapiens, UniProt P50613) IC50, key = Cc1n[nH]c2ccc(-c3cc(N[C@@H](CO)c4ccccc4)cnc3Cl)cc12
> 1 µM

# lookup: Cyclin-dependent kinase 7 (Homo sapiens, UniProt P50613) IC50, key = CCn1nc(C#Cc2cc(C(=O)Nc3ccc(CN4CCN(C)CC4)c(C(F)(F)F)c3)ccc2C)c2c(N)ncnc21
> 10 µM

# lookup: Cyclin-dependent kinase 7 (Homo sapiens, UniProt P50613) IC50, key = CC1(C)OCC(=O)Nc2cc(Nc3nc(NCC(F)(F)F)c4occc4n3)ccc21
> 10 µM

# lookup: Cyclin-dependent kinase 7 (Homo sapiens, UniProt P50613) IC50, key = CO[C@H]1CN[C@H](CNc2cc(NCc3ccccc3)n3ncc(C(C)C)c3n2)C1
> 1 µM

# lookup: Cyclin-dependent kinase 7 (Homo sapiens, UniProt P50613) IC50, key = c1cn(-c2cncc(-c3cnc(Nc4cc(N5CCOCC5)ccn4)s3)c2)nn1
> 10 µM

# lookup: Cyclin-dependent kinase 7 (Homo sapiens, UniProt P50613) IC50, key = COc1cc2c(cc1OC)-c1n[nH]c(Nc3cccc(F)c3)c1C2
> 10 µM

# lookup: Cyclin-dependent kinase 7 (Homo sapiens, UniProt P50613) IC50, key = O=C(Nc1ccc2c(c1)Oc1ncccc1C(=O)N2c1ccncc1)Nc1ccc(Cl)c(C(F)(F)F)c1
> 10 µM

# lookup: Cyclin-dependent kinase 7 (Homo sapiens, UniProt P50613) IC50, key = FC(F)(F)CNc1nc(Nc2ccc3cn[nH]c3c2)nc2ccoc12
> 10 µM

# lookup: Cyclin-dependent kinase 7 (Homo sapiens, UniProt P50613) IC50, key = COC[C@H](C)N[C@H]1CC[C@H](Nc2cc(-c3cccc(NCC4(C#N)CCOCC4)n3)c(Cl)cn2)CC1
> 1 µM
